# assay-notes: Mean residence time in rat
# Format: ADME, organism-based
# particulars: in vivo
metric-name: MRT (h)

Below, 2 compounds whose answers are already recorded.
1. Cc1nc(-c2ccc(C(F)(F)F)cc2)sc1COc1ccc([C@H](CC(=O)O)c2nccn2C)cc1
3.7
2. Cc1cc(Cl)ccc1-c1cccc(COc2ccc([C@H](CC(=O)O)c3nccn3C)cc2)c1
2.4

A: CC#C[C@@H](CC(=O)O)c1ccc(OCc2cccc(-c3ccc(C(F)(F)F)cc3)c2)cc1
B: Cc1cc(Cl)ccc1-c1cccc(COc2ccc([C@H](CC(=O)O)c3ncnn3C)cc2)c1
C: Cc1nc(-c2ccc(C(F)(F)F)cc2)sc1COc1ccc([C@H](CC(=O)O)c2ncnn2C)cc1
D: Cc1nc(-c2ccc(C(F)(F)F)cc2)sc1COc1ccc([C@H](CC(=O)O)c2nnnn2C)cc1
E: Cc1cc(Cl)ccc1-c1cccc(COc2ccc([C@H](CC(=O)O)c3nnnn3C)cc2)c1
Data request: // smallest MRT at index 0, largest at the end Labels, requested order.
Data returned: D, B, C, E, A
(D: 0.74 h, B: 2.5 h, C: 3.6 h, E: 5.2 h, A: 10 h)
